// provenance: patent US20250136722A1

Please provide measured Emax at 100 µM for the entries that follow.
# target-of-assay: human alpha1 nicotinic acetylcholine (nACh) receptor (Homo sapiens, UniProt P02708+Q07001)
# Sequence (P02708 21-457): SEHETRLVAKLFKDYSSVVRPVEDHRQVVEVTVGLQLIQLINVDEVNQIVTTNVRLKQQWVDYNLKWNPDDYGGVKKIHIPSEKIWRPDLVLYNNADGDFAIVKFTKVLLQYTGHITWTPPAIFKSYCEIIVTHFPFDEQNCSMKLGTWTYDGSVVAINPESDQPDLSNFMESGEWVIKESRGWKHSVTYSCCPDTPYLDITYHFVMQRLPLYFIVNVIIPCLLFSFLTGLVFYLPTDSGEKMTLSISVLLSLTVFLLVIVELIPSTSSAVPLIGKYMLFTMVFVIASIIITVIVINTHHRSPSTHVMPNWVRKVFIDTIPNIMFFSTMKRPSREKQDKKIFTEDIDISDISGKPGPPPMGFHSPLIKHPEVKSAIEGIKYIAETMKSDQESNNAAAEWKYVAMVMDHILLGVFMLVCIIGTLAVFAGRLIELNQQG
# Sequence (P11230 24-501 partner): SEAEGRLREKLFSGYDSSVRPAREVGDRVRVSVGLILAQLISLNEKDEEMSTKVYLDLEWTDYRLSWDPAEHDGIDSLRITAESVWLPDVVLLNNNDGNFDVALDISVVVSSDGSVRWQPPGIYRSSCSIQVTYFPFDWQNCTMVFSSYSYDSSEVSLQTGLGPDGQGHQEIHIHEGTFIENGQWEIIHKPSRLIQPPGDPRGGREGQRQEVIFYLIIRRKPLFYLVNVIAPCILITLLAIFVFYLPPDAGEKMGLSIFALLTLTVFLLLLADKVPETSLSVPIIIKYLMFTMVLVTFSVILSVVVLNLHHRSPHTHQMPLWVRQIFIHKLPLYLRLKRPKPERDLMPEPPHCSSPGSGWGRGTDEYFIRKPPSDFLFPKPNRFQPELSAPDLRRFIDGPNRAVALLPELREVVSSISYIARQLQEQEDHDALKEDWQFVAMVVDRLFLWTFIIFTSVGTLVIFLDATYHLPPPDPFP
# Sequence (Q07001 22-517): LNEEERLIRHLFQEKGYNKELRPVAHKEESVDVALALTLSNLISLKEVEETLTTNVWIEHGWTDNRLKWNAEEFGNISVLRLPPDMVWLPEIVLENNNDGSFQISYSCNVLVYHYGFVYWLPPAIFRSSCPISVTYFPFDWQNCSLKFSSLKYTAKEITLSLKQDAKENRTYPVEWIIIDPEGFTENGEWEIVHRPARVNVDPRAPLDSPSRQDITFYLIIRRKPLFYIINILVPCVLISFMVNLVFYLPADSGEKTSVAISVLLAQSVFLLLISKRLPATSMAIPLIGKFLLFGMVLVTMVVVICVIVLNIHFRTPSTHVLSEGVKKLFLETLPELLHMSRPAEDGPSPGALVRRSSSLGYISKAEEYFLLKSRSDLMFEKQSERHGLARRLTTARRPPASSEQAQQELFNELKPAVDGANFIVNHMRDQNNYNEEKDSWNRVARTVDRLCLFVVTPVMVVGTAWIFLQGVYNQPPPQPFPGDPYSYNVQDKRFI
# assay-info: Nicotinic acetylcholine receptor antagonism assay, IONFlux automated patch clamp (Example 203)
# Type: cell-based
# run-parameters: maximum percentage antagonism at maximum concentration tested 100 μM; read-out: Maximum Response (%)
One number for each entry, in %.

{"compound": "CC(C)N(C)[C@@H]1CC[C@H](N2CC[C@H](Nc3ncnc4ccc(C(F)(F)F)cc34)C2=O)[C@H](NC(=O)CCOCCNC(=O)COCCNC(=O)COCCNC(=O)[C@H]2CC(=O)N(C)[C@@H]2c2cccnc2)C1 [Example 102]", "Emax at 100 µM, %": 61.3}

Please give Emax at 100 µM, item by item, for the list that follows.
1. CC(C)N(C)[C@@H]1CC[C@H](N2CC[C@H](Nc3ncnc4ccc(C(F)(F)F)cc34)C2=O)[C@H](NC(=O)CNC(=O)[C@H]2CC[C@@H](NC(=O)CCOCCOCCNC(=O)[C@H]3CC(=O)N(C)[C@@H]3c3cccnc3)CC2)C1 [Example 137]
2. CC(C)N(C)[C@@H]1CC[C@H](N2CC[C@H](Nc3ncnc4ccc(C(F)(F)F)cc34)C2=O)[C@H](NC(=O)C2CCC(NC(=O)CCOCCNC(=O)CCOCCNC(=O)[C@H]3CC(=O)N(C)[C@@H]3c3cccnc3)CC2)C1 (stereo partly drawn) [Example 48]

1. 62
2. 77

====

# target-of-assay: Anti-cotinine antibody (SEQ ID NO: 11 / SEQ ID NO: 12, rabbit variable region with human IgG1 Fc domain)
# assay-info: Binding of anti-cotinine antibody to ARM compounds by SPR, Biacore T200, 37° C. (Example 202)
# run-parameters: pH 7.4, rabbit variable region/human IgG1 Fc antibody captured on protein A
# Source text: Anti-cotinine antibodies having a heavy chain sequence of SEQ ID NO: 11 and a light chain sequence of SEQ ID NO: 12 (rabbit variable region with human IgG1 Fc domain containing a DE mutation (S239D/1332E)) were captured on one or more flow cells of a protein A sensor chip (Cytiva) using a Biacore T200 while reserving flow cell 1 as a reference. […] The experiment was run using Biacore T200 control software and evaluated using Biacore T200 Evaluation software. […]
experimental-endpoint: pKd of Antibody for ARM Compound of Formula (I)
One number for each entry.

The examples below pair each entry with its known result.
{"molecule": "CC(C)N(C)[C@@H]1CC[C@H](N2CC[C@H](Nc3ncnc4ccc(C(F)(F)F)cc34)C2=O)[C@H](NC(=O)[C@H]2CC[C@@H](NC(=O)CCOCCOCCNC(=O)CNC(=O)[C@H]3CC(=O)N(C)[C@@H]3c3cccnc3)CC2)C1", "result-value": 8.674}
{"molecule": "CC(C)N(C)[C@@H]1CC[C@H](N2CC[C@H](Nc3ncnc4ccc(C(F)(F)F)cc34)C2=O)[C@H](NC(=O)C2CCC(NC(=O)CCOCCNC(=O)CCOCCNC(=O)[C@H]3CC(=O)N(C)[C@@H]3c3cccnc3)CC2)C1 (stereo partly drawn)", "result-value": 8.975}
{"molecule": "CC(C)N(C)[C@@H]1CC[C@H](N2CC[C@H](Nc3ncnc4ccc(C(F)(F)F)cc34)C2=O)[C@H](NC(=O)CCCC(=O)N[C@H]2CC[C@H](CNC(=O)CCOCCNC(=O)[C@H]3CC(=O)N(C)[C@@H]3c3cccnc3)CC2)C1", "result-value": 9.249}
{"molecule": "CC(C)N(C)[C@@H]1CCC(N2CC[C@H](Nc3ncnc4ccc(C(F)(F)F)cc34)C2=O)[C@H](NC(=O)CCOCCOCCOCCOCCOCCOCCOCCOCCNC(=O)[C@H]2CC(=O)N(C)[C@@H]2c2cccnc2)C1 (stereo partly drawn)", "result-value": 9.23}
{"molecule": "CC(C)N(C)[C@@H]1CC[C@H](N2CC[C@H](Nc3ncnc4ccc(C(F)(F)F)cc34)C2=O)[C@H](NC(=O)[C@H]2CC[C@@H](NC(=O)CCOCCOCCOCCNC(=O)[C@H]3CC(=O)N(C)[C@@H]3c3cccnc3)CC2)C1", "result-value": 9.273}

Please give pKd of Antibody for ARM Compound of Formula (I), item by item, for the list that follows.
1. CN1C(=O)C[C@H](C(=O)NCCOCCOCCOCCOCCOCCC(=O)N[C@@H]2C[C@H](NC(C)(C)C)CC[C@@H]2N2CC[C@H](Nc3ncnc4ccc(C(F)(F)F)cc34)C2=O)[C@H]1c1cccnc1
2. CN1C(=O)C[C@H](C(=O)NCCOCCOCCOCCOCCOCCOCCC(=O)N[C@@H]2C[C@H](NC(C)(C)C)CC[C@@H]2N2CC[C@H](Nc3ncnc4ccc(C(F)(F)F)cc34)C2=O)[C@H]1c1cccnc1
3. CC(C)N(C)[C@@H]1CC[C@H](N2CC[C@H](Nc3ncnc4ccc(C(F)(F)F)cc34)C2=O)[C@H](NC(=O)CCNC(=O)CCCOC[C@H]2CC[C@@H](COCCNC(=O)[C@H]3CC(=O)N(C)[C@@H]3c3cccnc3)CC2)C1
4. CC(C)N(C)[C@@H]1CC[C@H](N2CC[C@H](Nc3ncnc4ccc(C(F)(F)F)cc34)C2=O)[C@H](NC(=O)[C@H]2CC[C@H](C3CCN(C(=O)CCOCCOCCNC(=O)[C@H]4CC(=O)N(C)[C@@H]4c4cccnc4)CC3)CC2)C1

[9.7475, 9.611, 9.6305, 9.8185]

====

Please provide measured pKd of Antibody for ARM Compound of Formula (I) for the entries that follow.
# target-of-assay: Anti-cotinine antibody (SEQ ID NO: 11 / SEQ ID NO: 12, rabbit variable region with human IgG1 Fc domain)
# assay-info: Binding of anti-cotinine antibody to ARM compounds by SPR, Biacore T200, 37° C. (Example 202)
# run-parameters: pH 7.4, rabbit variable region/human IgG1 Fc antibody captured on protein A

{"compound-structure-string": "CC(C)N(C)[C@@H]1CC[C@H](N2CC[C@H](Nc3ncnc4ccc(C(F)(F)F)cc34)C2=O)[C@H](NC(=O)[C@H]2CC[C@@H](NC(=O)CCOCCNC(=O)CCNC(=O)CCNC(=O)[C@H]3CC(=O)N(C)[C@@H]3c3cccnc3)CC2)C1", "result-value": 9.117}

Continue with the compound presented below.
Form field: reported pKd of Antibody for ARM Compound of Formula (I) of `CC(C)N(C)[C@@H]1CC[C@H](N2CC[C@H](Nc3ncnc4ccc(C(F)(F)F)cc34)C2=O)[C@H](NC(=O)[C@H]2CC[C@H](NC(=O)CCOCCOCCOCCNC(=O)[C@H]3CC(=O)N(C)[C@@H]3c3cccnc3)CC2)C1`
9.3155

====

# target-of-assay: Anti-cotinine antibody (SEQ ID NO: 11 / SEQ ID NO: 12, rabbit variable region with human IgG1 Fc domain)
# assay-info: Binding of anti-cotinine antibody to ARM compounds by SPR, Biacore T200, 37° C. (Example 202)
# run-parameters: pH 7.4, rabbit variable region/human IgG1 Fc antibody captured on protein A
# From the text: Anti-cotinine antibodies having a heavy chain sequence of SEQ ID NO: 11 and a light chain sequence of SEQ ID NO: 12 (rabbit variable region with human IgG1 Fc domain containing a DE mutation (S239D/1332E)) were captured on one or more flow cells of a protein A sensor chip (Cytiva) using a Biacore T200 while reserving flow cell 1 as a reference. […] The experiment was run using Biacore T200 control software and evaluated using Biacore T200 Evaluation software. […]
experimental-endpoint: pKd of Antibody for ARM Compound of Formula (I)
Give bare numbers.

The examples below pair each entry with its known result.
{"compound-structure-string": "CC(C)N(C)[C@@H]1CC[C@H](N2CC[C@H](Nc3ncnc4ccc(C(F)(F)F)cc34)C2=O)[C@H](NC(=O)COCCNC(=O)COCCOCCNC(=O)CCNC(=O)[C@H]2CC(=O)N(C)[C@@H]2c2cccnc2)C1", "result-value": 9.275}
{"compound-structure-string": "CC(C)N(C)[C@@H]1CC[C@H](N2CC[C@H](Nc3ncnc4ccc(C(F)(F)F)cc34)C2=O)[C@H](NC(=O)COCCOCCNC(=O)CCOCCOCCNC(=O)[C@H]2CC(=O)N(C)[C@@H]2c2cccnc2)C1", "result-value": 9.152}
{"compound-structure-string": "CN1C(=O)C[C@H](C(=O)NCC(=O)NCCOCCOCCC(=O)N[C@H]2CC[C@@H](C(=O)N[C@@H]3C[C@H](NC(C)(C)C)CC[C@@H]3N3CC[C@H](Nc4ncnc5ccc(C(F)(F)F)cc45)C3=O)CC2)[C@H]1c1cccnc1", "result-value": 8.648}

Form field: reported pKd of Antibody for ARM Compound of Formula (I) of `CC(C)N(C)[C@@H]1CC[C@H](N2CC[C@H](Nc3ncnc4ccc(C(F)(F)F)cc34)C2=O)[C@H](NC(=O)CCOCCNC(=O)[C@H]2CC[C@@H](NC(=O)COCCNC(=O)[C@H]3CC(=O)N(C)[C@@H]3c3cccnc3)CC2)C1`
9.161
